The reported numbers originate from patent US20230263822A1.

Experiment: Hematology assays in cynomolgus monkeys (Example 45)
Type: in vivo
Details: day 43
Experimental: Groups, each consisting of two male and three female monkeys, were injected subcutaneously with ISIS 416838, ISIS 416850, ISIS 416858, ISIS 416864, or ISIS 417002 in escalating doses. […] Body weights were measured weekly. […]
observation_type: monocytes

Known monocytes results, listed for orientation:
[
  {
    "substance": "ISIS 416864: MOE gapmer, nucleobases 1275 to 1318 of SEQ ID NO: 1 (Table 8) (antisense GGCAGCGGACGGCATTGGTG; MOE gapmer, wing and gap sizes not given here)",
    "measured_value": "2.1%"
  },
  {
    "substance": "ISIS 416838: MOE gapmer, nucleobases 1018 to 1042 of SEQ ID NO: 1 (Table 6) (antisense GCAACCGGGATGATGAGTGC; MOE gapmer, wing and gap sizes not given here)",
    "measured_value": "3.3%"
  },
  {
    "substance": "ISIS 416858: MOE gapmer, nucleobases 1275 to 1318 of SEQ ID NO: 1 (Table 8) (antisense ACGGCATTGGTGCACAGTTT; MOE gapmer, wing and gap sizes not given here)",
    "measured_value": "3.1%"
  },
  {
    "substance": "ISIS 416850: MOE gapmer, nucleobases 1275 to 1318 of SEQ ID NO: 1 (Table 8) (antisense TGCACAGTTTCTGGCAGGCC; MOE gapmer, wing and gap sizes not given here)",
    "measured_value": "2.6%"
  }
]

Now consider the entry below.
Lab note: ISIS 417002: MOE gapmer, nucleobases 1275 to 1318 of SEQ ID NO: 1 (Table 8) (antisense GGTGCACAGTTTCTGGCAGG; MOE gapmer, wing and gap sizes not given here) gave monocytes of 2.8%
